# Tested on: Puccinia triticina
# assay method text: Fungicidal activity: wheat brown rust (PUCCRT), wheat seedlings, booth sprayer to run-off or track spray
# Assay type: in vivo
# experimental parameters: 72 h, Low-Volume Cereal Activity at 121.5 g/H, 3 Day Curative, read-out: PUCCRT 3DC
# Experimental: All fungicides were evaluated using the aforementioned method for their activity vs. all target diseases. Wheat leaf blotch and brown rust activity were also evaluated using track spray applications, in which case the fungicides were formulated as EC formulations, containing 0.1% Trycol 5941 in the spray solutions. Wheat plants (variety Yuma) were grown from seed in a greenhouse in 50% mineral soil/50% soil-less Metro mix until the first leaf was fully emerged, with 7-10 seedlings per pot. […]
measured quantity: pest or weed control at 121.5 g/ha

Query: Which pest or weed control at 121.5 g/ha is reported for this compound? COc1ccnc(C(=O)N[C@@H](C)C(=O)O[C@@H](C)[C@H](Cc2ccccc2)c2ccccc2)c1OCOC(C)=O
Response: 80 to 100%

Query: Which pest or weed control at 121.5 g/ha is reported for this compound? CC[C@H](Cc1ccccc1)[C@@H](Cc1ccc(F)cc1)[C@H](C)OC(=O)[C@H](C)NC(=O)c1nccc(OC)c1OCOC(C)=O
Response: 0 to 80%

Query: Which pest or weed control at 121.5 g/ha is reported for this compound? COc1ccnc(C(=O)N[C@@H](C)C(=O)O[C@@H](C)[C@H](Cc2ccc(F)cc2)C(C)(C)OCc2ccccc2)c1OCOC(C)=O
Response: 0 to 80%

Query: Which pest or weed control at 121.5 g/ha is reported for this compound? COC[C@@H](Cc1ccc(F)cc1)[C@H](C)OC(=O)[C@H](C)NC(=O)c1nccc(OC)c1OC(C)=O
Response: 0 to 80%

Query: Which pest or weed control at 121.5 g/ha is reported for this compound? COc1ccnc(C(=O)N[C@@H](C)C(=O)O[C@@H](C)[C@H](Cc2ccc(F)cc2)c2ccccc2)c1OCOC(=O)C(C)C
Response: 0 to 80%

Query: Which pest or weed control at 121.5 g/ha is reported for this compound? COc1ccnc(C(=O)N[C@@H](C)C(=O)O[C@@H](C)[C@H](Cc2ccc(Cl)cc2)c2ccccc2)c1OCOC(C)=O
Response: 0 to 80%

Query: Which pest or weed control at 121.5 g/ha is reported for this compound? CCCOC[C@@H](Cc1ccccc1)[C@H](C)OC(=O)[C@H](CC)NC(=O)c1nccc(OC)c1OCOC(C)=O
Response: 80 to 100%

Query: Which pest or weed control at 121.5 g/ha is reported for this compound? COc1ccnc(C(=O)N[C@@H](C)C(=O)O[C@@H](C)[C@H](Cc2ccccc2)c2ccccc2)c1OC(C)=O
Response: 0 to 80%

Query: Which pest or weed control at 121.5 g/ha is reported for this compound? COc1ccnc(C(=O)N[C@@H](C)C(=O)O[C@@H](C)[C@H](Cc2ccc(F)cc2)C(C)(C)OC)c1OCOC(C)=O
Response: 80 to 100%

Query: Which pest or weed control at 121.5 g/ha is reported for this compound? COc1ccnc(C(=O)N[C@@H](C)C(=O)O[C@@H](C)[C@@H](COCCC(C)C)Cc2ccc(F)cc2)c1OCOC(C)=O
Response: 0 to 80%

Query: Which pest or weed control at 121.5 g/ha is reported for this compound? COc1ccnc(C(=O)N[C@@H](C)C(=O)O[C@@H](C)[C@H](Cc2ccccc2)C(C)C)c1OC(C)=O
Response: 80 to 100%

Query: Which pest or weed control at 121.5 g/ha is reported for this compound? COc1ccnc(C(=O)N[C@@H](C)C(=O)O[C@@H](C)[C@H](CCC(C)C)c2ccccc2)c1OCOC(=O)C(C)C
Response: 80 to 100%

Query: Which pest or weed control at 121.5 g/ha is reported for this compound? COc1ccnc(C(=O)N[C@@H](C)C(=O)O[C@@H](C)[C@H](CCC(C)C)c2ccccc2)c1OCOC(C)=O
Response: 80 to 100%

====

# Test system: Puccinia triticina
# assay method text: Fungicidal activity: wheat brown rust (PUCCRT), wheat seedlings, booth sprayer to run-off or track spray
# Assay type: in vivo
# experimental parameters: 72 h, Low-Volume Cereal Activity at 121.5 g/H, 3 Day Curative, read-out: PUCCRT 3DC
measured quantity: pest or weed control at 121.5 g/ha

Query: Requested read-out pest or weed control at 121.5 g/ha, target or system Puccinia triticina, entry CCOCC(=O)OCOc1c(OC)ccnc1C(=O)N[C@@H](C)C(=O)O[C@@H](C)[C@@H](COCc1ccccc1)Cc1ccc(F)cc1
Response: 0 to 80%

Query: Requested read-out pest or weed control at 121.5 g/ha, target or system Puccinia triticina, entry CCCOC[C@@H](Cc1ccc(OC)c(Cc2ccccc2)c1)[C@H](C)OC(=O)[C@H](C)NC(=O)c1nccc(OC)c1OCOC(C)=O
Response: 0 to 80%

Query: Requested read-out pest or weed control at 121.5 g/ha, target or system Puccinia triticina, entry COc1ccnc(C(=O)N[C@@H](C)C(=O)O[C@@H](C)[C@H](Cc2ccccc2)C(C)(C)OCc2ccccc2)c1OC(C)=O
Response: 0 to 80%

Query: Requested read-out pest or weed control at 121.5 g/ha, target or system Puccinia triticina, entry CCCC[C@H](c1ccccc1)[C@H](C)OC(=O)[C@H](C)NC(=O)c1nccc(OC)c1OCOC(=O)C(C)C
Response: 80 to 100%

Query: Requested read-out pest or weed control at 121.5 g/ha, target or system Puccinia triticina, entry CC[C@@H](Oc1ccccc1)[C@@H](Cc1ccccc1)[C@H](C)OC(=O)[C@H](C)NC(=O)c1nccc(OC)c1OCOC(C)=O
Response: 80 to 100%

Query: Requested read-out pest or weed control at 121.5 g/ha, target or system Puccinia triticina, entry COc1ccnc(C(=O)N[C@@H](C)C(=O)O[C@@H](C)[C@@H](COCCC(C)C)Cc2ccccc2)c1OCOC(C)=O
Response: 80 to 100%

Query: Requested read-out pest or weed control at 121.5 g/ha, target or system Puccinia triticina, entry COc1ccnc(C(=O)N[C@@H](C)C(=O)OC(C)C(Cc2cccc(F)c2)Cc2cccc(F)c2)c1OC(C)=O (stereo partly shown)
Response: 0 to 80%

Query: Requested read-out pest or weed control at 121.5 g/ha, target or system Puccinia triticina, entry C=C[C@H](Cc1ccc(C(F)(F)F)cc1)[C@@H](Cc1ccc(F)cc1)[C@H](C)OC(=O)[C@H](COC)NC(=O)c1nccc(OC)c1OC(C)=O
Response: 0 to 80%

Query: Requested read-out pest or weed control at 121.5 g/ha, target or system Puccinia triticina, entry COc1ccc(C[C@H](COCC2CC2)[C@H](C)OC(=O)[C@H](C)NC(=O)c2nccc(OC)c2OCOC(C)=O)cc1
Response: 80 to 100%

Query: Requested read-out pest or weed control at 121.5 g/ha, target or system Puccinia triticina, entry CC[C@H](NC(=O)c1nccc(OC)c1OC(C)=O)C(=O)O[C@@H](C)C(Cc1ccc(OC)cc1)Cc1cccc(OC)c1 (stereo partly shown)
Response: 0 to 80%

Query: Requested read-out pest or weed control at 121.5 g/ha, target or system Puccinia triticina, entry CCCC[C@H](c1ccccc1)[C@H](C)OC(=O)[C@H](C)NC(=O)c1nccc(OC)c1OC(C)=O
Response: 80 to 100%

Query: Requested read-out pest or weed control at 121.5 g/ha, target or system Puccinia triticina, entry CC[C@H](NC(=O)c1nccc(OC)c1OCOC(C)=O)C(=O)OC(C)C(Cc1ccccc1)Cc1ccccc1 (stereo partly shown)
Response: 0 to 80%

Query: Requested read-out pest or weed control at 121.5 g/ha, target or system Puccinia triticina, entry CCCOC(C)(C)[C@@H](Cc1ccccc1)[C@H](C)OC(=O)[C@H](C)NC(=O)c1nccc(OC)c1OCOC(C)=O
Response: 80 to 100%
